tested on: SF-268 CNS; experiment: NCI-60 one-dose screen, 48 h (100 = growth as untreated, 0 = no growth, -100 = all killed); details: 10 µM
The panel holds about 83,000 compounds, 20% with a hit somewhere; the sample as a whole holds those more often.
Kind request: treat 40% as inclusive, so growth at 40% or higher is met, anything lower is not met.

sample smiles	class label
C#Cc1ccc(-n2c(/C=C/c3ccc4ccccc4n3)nc3ncccc3c2=O)cc1	not met
COc1cc(Cl)cc(-c2nn(-c3cccc(NC(=O)Nc4ccc(Cl)c(Cl)c4)c3)cc2-c2ccncc2)c1	not met
C/C(=N\Nc1nc2ccccc2s1)c1ccncn1	met
CN(C)c1ccc(N=C2C=CC(=O)c3ccccc32)cc1	met
COc1ccc(OC)c(NC(=O)c2sc3nc4c(cc3c2N)C(=O)CCC4)c1	met

Check the entry O=C(Nc1ccc(CO)cc1)c1ccccc1Nc1ccnc(C(F)(F)F)c1 : does growth equal or exceed 40%?
met

Check the entry COc1ccc(OC)c(/C=C/c2nc(SCc3ccccc3)n(-c3ccc(Cl)cc3)n2)c1 : does growth equal or exceed 40%?
met

Check the entry O=C1/C(=C\c2cn(C(=O)c3ccc(Cl)cc3)c3ccccc23)c2ccccc2N1C(=O)c1ccc(Cl)cc1 : does growth equal or exceed 40%?
met

Check the entry CN1CCC(CNc2cc(C3(C(=O)Nc4cc(C(=O)Nc5ccc(Cl)c(C(F)(F)F)c5)ccc4F)CC3)ncn2)CC1 : does growth equal or exceed 40%?
not met

---

Tested on: OVCAR-5 ovarian
Test: NCI-60 one-dose screen, 48 h (100 = growth as untreated, 0 = no growth, -100 = all killed)
Conditions: 10 µM
Procedure: Growth inhibition of the OVCAR-5 human tumor cell line is measured as a screen for anti-cancer activity. Cells are grown in 96 well plates and exposed to the test compound for 48 hours. Compounds are tested at a single concentration, which is 10^-5 M for most compounds. The reported endpoint is percent growth (GI% or GIPRCNT), where numbers from 0 - 100% represent growth inhibition, and numbers from -100% - 0 represent cell death. For example, a value of 40 represents 60% growth inhibition. […]
The panel holds about 83,000 compounds, 20% with a hit somewhere; the sample as a whole holds those more often.
Kindly apply the following: Satisfied if growth is less than 70%, Not satisfied in every other case.

// below: answered compounds
compound	class label
Clc1ccc(Nc2ccnc(NCCCNc3ccnc4cc(Cl)ccc34)n2)cc1	Satisfied
CN(C)C(=S)N/N=C\C=N/NC(=S)N(C)C	Not satisfied
O=C1/C(=C\c2ccc(F)cc2)CN(C(=O)c2ccccc2F)C/C1=C\c1ccc(F)cc1	Satisfied

Check if growth falls below 70% for CO/N=C(/C(=O)NC1C(=O)N2C(C(=O)O)=C(COC(N)=O)CSC12)c1ccco1 (stereo unspecified) .
Not satisfied

Check if growth falls below 70% for COc1ccc2c(c1)C(=O)c1c-2c(OCCN(C)C)nc2ccccc12 .
Satisfied

Check if growth falls below 70% for COc1cc(NC(=O)CSc2nc3ccccc3c(=O)n2CCc2ccccc2)cc(OC)c1OC .
Satisfied

---

tested on: SF-268 CNS; assay: NCI-60 one-dose screen, 48 h; settings: 10 µM
This is part of a sample that, as a whole, favours compounds with a hit. Of some 83,000 tested, about 20% had one in any assay. Activity calls are given as the source filed them. Rule for the calls: active = growth percent below 10; inactive = the rest.
Answer with one of the outcomes yes (1) (active), no (0) (inactive)

// below: answered compounds
compound	class label
COc1ccc(-c2cc(/C=C3\C(=O)Nc4ccc(Cl)cc43)[nH]n2)cc1OC	no (0)
CC1(C)OC2=C(CC1Br)C(=O)C(=O)c1ccccc12 (configuration not stated)	yes (1)
Cc1ccc(NC(=O)CSc2nc3ccccc3c(=O)n2CCc2ccccc2)c(C(=O)O)c1	no (0)
COc1cc(-c2nn3c(/C=C4/C(=O)Nc5ccccc54)c(-c4ccc(C)cc4)nc3s2)cc(OC)c1OC	no (0)

Test call for this compound, please: Nc1ccc2c(c1)Cc1cc(N)c(Br)cc1-2
no (0)

Test call for this compound, please: COc1ccc(-c2nc(-c3nc4ccc(OC)cc4[nH]3)cc3c2[nH]c2ccccc23)cc1
no (0)

Test call for this compound, please: Nc1ncnc2[nH]c(=O)[nH]c12
no (0)

Test call for this compound, please: O=C1N=NC2=C1c1c3ccccc3c(O)n1CC2
no (0)

Test call for this compound, please: Cc1ccc(-c2nc(/C=C3/C(=O)N(C)c4ccc(F)cc43)c3ccccn23)cc1
no (0)

Test call for this compound, please: CS(=O)(=O)Nc1ccc(Nc2c3ccccc3nc3cc([N+](=O)[O-])ccc23)cc1
no (0)

Test call for this compound, please: O=C(NN1C(=O)CSC1c1ccc(Cl)cc1)c1cccnc1 (configuration not stated)
no (0)

Test call for this compound, please: COc1ccc2c(c1)C(=O)c1c-2c(OCCN2CCCCC2)nc2ccc(OC)cc12
no (0)

Test call for this compound, please: Nc1ncn([C@@H]2O[C@H](CO)[C@@H](O)[C@H]2O)c(=O)n1
no (0)

Test call for this compound, please: O=C(CC(NC(=O)OCc1ccccc1)C(=O)OCc1ccccc1)OCc1ccccc1 (configuration not stated)
no (0)
